Just for reference, the Immune Epitope Database (IEDB) is where these values come from.

Target: HLA-B*15:01
Assay: IEDB peptide-MHC binding, purified MHC/direct/fluorescence; filed as Kd, often an IC50 or EC50 that approximates it; bounds were set here for any values at or beyond the usual limits of such assays
Conditions: source organism: Mycobacterium tuberculosis
pKd: −log10 of the molar value.
METRIC: pKd

>  <SEQUENCE RECORD>
IPAPGLGAL

>  <RECORDED VALUE>
≤ 4.70

$$$$
>  <SEQUENCE RECORD>
RIRSERPAF

>  <RECORDED VALUE>
7.56

$$$$
>  <SEQUENCE RECORD>
VPRDRNGTF

>  <RECORDED VALUE>
≤ 4.70

$$$$
>  <SEQUENCE RECORD>
RGRIGRTYL

>  <RECORDED VALUE>
≤ 4.70

$$$$
>  <SEQUENCE RECORD>
IVFATAARY

>  <RECORDED VALUE>
6.79

$$$$
>  <SEQUENCE RECORD>
AVFDSFVER

>  <RECORDED VALUE>
≤ 4.70

$$$$

----------
Target: HLA-A*32:07
Assay: IEDB peptide-MHC binding, purified MHC/competitive/fluorescence; filed as Kd, often an IC50 or EC50 that approximates it; bounds were set here for any values at or beyond the usual limits of such assays
Conditions: source organism: Yersinia pestis Nepal516
METRIC: Kd (nM)

>  <SEQUENCE RECORD>
YSLMSRYQF

>  <ENDPOINT UNIT>
nM

>  <RECORDED VALUE>
25.8

$$$$

----------
Target: HLA-B*35:01
Test: IEDB peptide-MHC binding, purified MHC/direct/fluorescence; filed as Kd, often an IC50 or EC50 that approximates it; bounds were set here for any values at or beyond the usual limits of such assays
Details: source organism: Giardia lamblia ATCC 50803
pKd: −log10 of the molar value.
METRIC: pKd

>  <SEQUENCE RECORD>
QHTRRVSVL

>  <TARGET DESC>
HLA-B*35:01

>  <RECORDED VALUE>
5.88

$$$$

----------
Biological target: HLA-A*03:01
Test: IEDB peptide-MHC binding, purified MHC/direct/fluorescence; filed as Kd, often an IC50 or EC50 that approximates it; bounds were set here for any values at or beyond the usual limits of such assays
Settings: source organism: Mammarenavirus juninense
METRIC: Kd

>  <SEQUENCE RECORD>
YAKKFKTGM

>  <RECORDED VALUE>
≥ 20 µM

$$$$
>  <SEQUENCE RECORD>
KLFDLHGRR

>  <RECORDED VALUE>
0.241 µM

$$$$
>  <SEQUENCE RECORD>
GKLDPTNTL

>  <RECORDED VALUE>
≥ 20 µM

$$$$

----------
Molecular target: HLA-A*68:02
Test: IEDB peptide-MHC binding, purified MHC/direct/fluorescence; filed as Kd, often an IC50 or EC50 that approximates it; bounds were set here for any values at or beyond the usual limits of such assays
Details: source organism: Rio Mearim virus
METRIC: Kd

>  <SEQUENCE RECORD>
DWMERIEDF

>  <TARGET DESC>
HLA-A*68:02

>  <METRIC>
Kd

>  <RECORDED VALUE>
≥ 20 µM

$$$$
